The reader will find pIC50 measurements below, all made with Acetylcholinesterase (Homo sapiens, UniProt P22303).
Sequence (P22303 whole entry): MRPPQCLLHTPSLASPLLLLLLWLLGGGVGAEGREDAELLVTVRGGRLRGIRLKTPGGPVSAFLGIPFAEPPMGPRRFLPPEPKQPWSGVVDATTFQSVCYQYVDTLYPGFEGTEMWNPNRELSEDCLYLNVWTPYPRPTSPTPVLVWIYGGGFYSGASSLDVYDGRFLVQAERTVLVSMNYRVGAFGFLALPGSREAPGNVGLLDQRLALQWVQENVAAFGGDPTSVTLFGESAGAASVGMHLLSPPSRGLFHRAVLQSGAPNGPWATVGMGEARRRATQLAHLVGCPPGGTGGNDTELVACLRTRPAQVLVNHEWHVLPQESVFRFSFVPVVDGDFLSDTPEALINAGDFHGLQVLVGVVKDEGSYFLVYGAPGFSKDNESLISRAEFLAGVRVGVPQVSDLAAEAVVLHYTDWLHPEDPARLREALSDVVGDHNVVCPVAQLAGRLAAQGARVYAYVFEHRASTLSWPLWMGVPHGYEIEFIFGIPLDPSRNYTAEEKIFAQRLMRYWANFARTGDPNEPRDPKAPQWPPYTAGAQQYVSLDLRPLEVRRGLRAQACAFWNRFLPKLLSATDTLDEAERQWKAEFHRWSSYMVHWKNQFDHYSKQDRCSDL
Interpret pIC50 as the negative base-10 log of the concentration measured in mol/L.

QUERY: Please report the recorded pIC50 for CN(CCCC(F)F)Cc1ccc(COc2ccc3c(CO)cc(=O)oc3c2)cc1 .
RESULT: 6.26

QUERY: Please report the recorded pIC50 for Cc1c(C)c2ccc(OCc3cccc(CN(C)CCCC(F)F)c3)cc2oc1=O .
RESULT: 5.77

QUERY: Please report the recorded pIC50 for Cc1c(C)c2ccc(OCC3CCCN(CCCO)C3)cc2oc1=O (racemic) .
RESULT: 5.96

QUERY: Please report the recorded pIC50 for CN(CCCO)Cc1ccc(COc2ccc3c(CO)cc(=O)oc3c2)cc1 .
RESULT: 5.66

QUERY: Please report the recorded pIC50 for Cc1c(C)c2ccc(OCc3ccc(CN(C)CCCC(F)F)cc3)cc2oc1=O .
RESULT: 5.82

----------
ASSAY SUMMARY: Intrinsic clearance in mouse liver microsomes at 0.5 uM incubated upto 30 mins in presence of NADPH measured per mg protein by LC/MS/MS analysis
Format: ADME, Microsome
CONDITION SUMMARY: read-out: CLH
MEASURE: microsomal CLint at 0.5 µM (µL/min/mg)
Return type: number; implicit unit µL/min/mg.

Some solved cases for reference:
1) Cc1c(C)c2ccc(OCC3CCCN(Cc4cccc(F)c4)C3)cc2oc1=O (racemic) : 210
2) Cc1c(C)c2ccc(OCC3CCN(Cc4cccc(F)c4)CC3)cc2oc1=O : 225

Then there is this compound:
QUERY: Please report the recorded microsomal CLint at 0.5 µM for Cc1c(C)c2ccc(OCc3cccc(CN(C)CCCC(F)F)c3)cc2oc1=O .
RESULT: 289

----------
The reader will find pIC50 measurements below, all made with UniProt P27338.
Sequence (P27338 whole entry): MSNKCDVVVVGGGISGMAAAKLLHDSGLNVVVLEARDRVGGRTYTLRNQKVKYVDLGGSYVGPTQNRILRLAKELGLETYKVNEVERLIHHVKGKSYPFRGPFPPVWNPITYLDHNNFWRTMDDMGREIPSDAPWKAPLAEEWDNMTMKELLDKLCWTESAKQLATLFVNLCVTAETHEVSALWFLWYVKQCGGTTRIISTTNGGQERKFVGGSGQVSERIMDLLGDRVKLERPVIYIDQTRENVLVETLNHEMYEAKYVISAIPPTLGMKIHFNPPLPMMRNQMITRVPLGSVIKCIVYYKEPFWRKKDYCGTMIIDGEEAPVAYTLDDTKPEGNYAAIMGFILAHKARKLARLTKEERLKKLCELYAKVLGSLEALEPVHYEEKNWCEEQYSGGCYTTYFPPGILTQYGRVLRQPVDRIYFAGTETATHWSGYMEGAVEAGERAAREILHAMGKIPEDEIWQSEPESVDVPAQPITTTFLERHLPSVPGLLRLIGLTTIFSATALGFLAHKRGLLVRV
Interpret pIC50 as the negative base-10 log of the concentration measured in mol/L.

1) Cc1c(C)c2ccc(OCC3CCN(CCCC(F)F)CC3)cc2oc1=O : 6.28
2) CCN(CCCOc1ccc2c(C)c(C)c(=O)oc2c1)Cc1cccc(F)c1 : 7.14
3) Cc1c(C)c2ccc(OCC3CCCN(CCCC(F)F)C3)cc2oc1=O (racemic) : 6.59

QUERY: Please report the recorded pIC50 for CN(CCCC(F)F)Cc1ccc(COc2ccc3c(CO)cc(=O)oc3c2)cc1 .
RESULT: 8.09

QUERY: Please report the recorded pIC50 for Cc1c(C)c2ccc(OCc3ccc(CN(C)CCCC(F)F)cc3)cc2oc1=O .
RESULT: 6.80

----------
ASSAY SUMMARY: Microsomal stability in mouse liver microsomes assessed as half life at 0.5 uM incubated upto 30 mins in presence of NADPH by LC/MS/MS analysis
Type: ADME, Microsome
Quick reference for half-life at 0.5 µM among some compounds
Return type: number; implicit unit min.

1. Cc1c(C)c2ccc(OCC3CCN(CCCC(F)F)CC3)cc2oc1=O : 11.9
2. Cc1c(C)c2ccc(OCC3CCCN(CCCO)C3)cc2oc1=O (racemic) : 92.4
3. Cc1c(C)c2ccc(OCc3cccc(CN(C)CCCC(F)F)c3)cc2oc1=O : 4.8
4. CN(Cc1ccccc1)Cc1ccc(COc2ccc3c(C(F)F)cc(=O)oc3c2)cc1 : 9.8
5. Cc1c(C)c2ccc(OCC3CCN(Cc4cccc(C(F)(F)F)c4)CC3)cc2oc1=O : 9.5

QUERY: Please report the recorded half-life at 0.5 µM for Cc1c(C)c2ccc(OCC3CCN(CCCO)CC3)cc2oc1=O .
RESULT: 47.2

QUERY: Please report the recorded half-life at 0.5 µM for CN(CCCC(F)F)Cc1ccc(COc2ccc3c(CO)cc(=O)oc3c2)cc1 .
RESULT: 25
